// data source = paper PMC7973133

Km reference
# Substrate: NC(=O)C1=CN([C@@H]2O[C@H](COP(=O)(O)OP(=O)(O)OC[C@H]3O[C@@H](n4cnc5c(N)ncnc54)[C@H](OP(=O)(O)O)[C@@H]3O)[C@@H](O)[C@H]2O)C=CC1
# protocol: purified protein
# Format: biochemical, Escherichia coli
# experimental_parameters: acetoacetyl-ACP generated in situ (100 μM ACP, 500 μM malonyl-CoA, 500 μM acetyl-CoA, FabD, FabH), 0.1 M sodium phosphate pH 7.0, varied: cofactor
value_type: Km (µM)

>>> numeric_result("E. coli FabG (3-ketoacyl-ACP reductase) (Escherichia coli K-12) (protein, homotetramer) MNFEGKIALVTGASRGIGRAIAETLAARGAKVIGTATSENGAQAISDYLGANGKGLMLNVTDPASIESVLEKIRAEFGEVDILVNNAGITRDNLLMRMKDEEWNDIIETNLSSVFRLSKAVMRAMMKKRHGRIITIGSVVGTMGNGGQANYAAAKAGLIGFSKSLAREVASRGITVNVVAPGFIETDMTRALSDDQRAGILAQVPAGRLGGAQEIANAVAFLASDEAAYITGETLHVNGGMYMV")
99.22
>>> numeric_result("E. coli FabG (3-ketoacyl-ACP reductase) (Escherichia coli K-12; S138A) (protein, homotetramer) MNFEGKIALVTGASRGIGRAIAETLAARGAKVIGTATSENGAQAISDYLGANGKGLMLNVTDPASIESVLEKIRAEFGEVDILVNNAGITRDNLLMRMKDEEWNDIIETNLSSVFRLSKAVMRAMMKKRHGRIITIGAVVGTMGNGGQANYAAAKAGLIGFSKSLAREVASRGITVNVVAPGFIETDMTRALSDDQRAGILAQVPAGRLGGAQEIANAVAFLASDEAAYITGETLHVNGGMYMV")
101.47
>>> numeric_result("E. coli FabG (3-ketoacyl-ACP reductase) (Escherichia coli K-12; Y151F) (protein, homotetramer) MNFEGKIALVTGASRGIGRAIAETLAARGAKVIGTATSENGAQAISDYLGANGKGLMLNVTDPASIESVLEKIRAEFGEVDILVNNAGITRDNLLMRMKDEEWNDIIETNLSSVFRLSKAVMRAMMKKRHGRIITIGSVVGTMGNGGQANFAAAKAGLIGFSKSLAREVASRGITVNVVAPGFIETDMTRALSDDQRAGILAQVPAGRLGGAQEIANAVAFLASDEAAYITGETLHVNGGMYMV")
147.72
>>> numeric_result("E. coli FabG (3-ketoacyl-ACP reductase) (Escherichia coli K-12; K155A) (protein, homotetramer) MNFEGKIALVTGASRGIGRAIAETLAARGAKVIGTATSENGAQAISDYLGANGKGLMLNVTDPASIESVLEKIRAEFGEVDILVNNAGITRDNLLMRMKDEEWNDIIETNLSSVFRLSKAVMRAMMKKRHGRIITIGSVVGTMGNGGQANYAAAAAGLIGFSKSLAREVASRGITVNVVAPGFIETDMTRALSDDQRAGILAQVPAGRLGGAQEIANAVAFLASDEAAYITGETLHVNGGMYMV")
166.45
